Data origin, for the record: patent US12043602B2

# assayed.system: mGFP-K-RASG12V (Homo sapiens (Human), UniProt P01116, G12V)
# protocol.description: K-Ras mislocalization assay (confocal microscopy, Manders coefficient)
# Format: cell-based
# Parameters: key: Manders coefficient: fraction of mCherry-CAAX co-localizing with GFP-K-Ras
# test.parameters: maximal effect, Manders coefficient; MDCK cells, 48 h
readout: Emax
The answer should be a number; do not append a unit.

molecule.smiles: COc1ccc([C@@H](C)N(CC=C(c2ccccc2)c2ccccc2)CCN2CCN(C(=O)Nc3ccccc3)CC2)cc1
Emax: 0.920

Tell me the measured Emax of "COc1ccc([C@@H](C)N(CC=C(c2ccccc2)c2ccccc2)CC(=O)N2CCN(C)CC2)cc1" , please.
0.73

Tell me the measured Emax of "C[C@H](c1ccc(F)cc1)N(CC=C(c1ccccc1)c1ccccc1)CCn1cc(CN)nn1" , please.
0.609

Tell me the measured Emax of "COc1ccc([C@@H](C)N(CC=C(c2ccccc2)c2ccccc2)C(=O)NC2CCCCC2)cc1" , please.
0.816

---

Emax overview
# assayed.system: mGFP-K-RASG12V (Homo sapiens (Human), UniProt P01116, G12V)
# protocol.description: K-Ras mislocalization assay (confocal microscopy, Manders coefficient)
# Type: cell-based
# Set-up: key: Manders coefficient: fraction of mCherry-CAAX co-localizing with GFP-K-Ras
# test.parameters: maximal effect, Manders coefficient; MDCK cells, 48 h
The answer should be a number; do not append a unit.

molecule: COc1ccc([C@H](C)N(CC=C(c2ccccc2)c2ccccc2)CCN2CC2)cc1 [NY0436]
value: 0.716
//
molecule: O=C(c1cc2ccccn2n1)N(CC=C(c1ccccc1)c1ccccc1)CCN1CCCC1 [PW286]
value: 0.801
//
molecule: C(CN(CCN1CCCC1)[C@@H]1C[C@H]1c1ccccc1)=C(c1ccccc1)c1ccccc1 [NY0592]
value: 0.685
//
molecule: C[C@@H](NCC(=O)N1c2ccccc2CCc2ccccc21)c1ccccc1 [NY0584]
value: 0.697

Now, please, on to the next molecule.
Tell me the measured Emax of C[C@H](c1ccccc1)N(CC=C(c1ccccc1)c1ccccc1)CCN1CCN(C)CC1 [NY0513] , please.
0.786
